Assignment: determine reported pIC50 for the given molecules.
- Target of assay: UniProt:Q96SW2
Numbers only, as −log10 of the molar value.

Below: 6 molecules and their reported pIC50.
CC1(C)CCC(CN2CC3CCC(C2)N3C(=O)c2ccc3c(c2)CN(C2CCC(=O)NC2=O)C3=O)=C(c2ccc(F)cc2)C1 (centres unmarked) [GT-05451]	5.94
O=C1CCC(N2C(=O)c3ccc(N4CC5CC(C4)N5Cc4ccccc4-c4ccc(Cl)cc4)cc3C2=O)C(=O)N1 (centres unmarked) [GT-05373]	5.83
O=C1CCC(N2Cc3cc(CN4CC5CC(C4)N5Cc4ccccc4-c4ccc(Cl)cc4)ccc3C2=O)C(=O)N1 (centres unmarked) [GT-05704]	6.17
CC1(C)CCC(C(=O)N2C3CC2CN(Cc2ccc4c(c2)CN(C2CCC(=O)NC2=O)C4=O)C3)=C(c2ccc(Cl)cc2)C1 (centres unmarked) [GT-05660]	5.98
O=C1CCC(N2Cc3cc(CN4CCN(Cc5ccccc5-c5ccc(F)cc5)CC4)ccc3C2=O)C(=O)N1 (centres unmarked) [GT-04256]	5.85
CC1(C)CCC(CN2C3CCC2CN(C(=O)c2ccc4c(c2)CN(C2CCC(=O)NC2=O)C4=O)C3)=C(c2ccc(Cl)cc2)C1 (centres unmarked) [GT-05446]	5.73

Batch lookup, pIC50 per entry.
1. CC1(C)CCC(C(=O)N2CC(Cc3ccc4c(c3)CN(C3CCC(=O)NC3=O)C4=O)C2)=C(c2ccc(Cl)cc2)C1 (centres unmarked) [GT-05419]
2. O=C1CCC(N2Cc3cc(CN4CCN(Cc5ccccc5-c5ccc(Cl)cc5)CC4)ccc3C2=O)C(=O)N1 (centres unmarked) [GT-03355]
3. CC1(C)CCC(C(=O)N2CC3CC(C2)N3Cc2ccc3c(c2)CN(C2CCC(=O)NC2=O)C3=O)=C(c2ccc(F)cc2)C1 (centres unmarked) [GT-05514]
4. O=C1CCC(N2Cc3cc(CN4CC5(C4)CN(Cc4ccccc4-c4ccc(Cl)cc4)C5)ccc3C2=O)C(=O)N1 (centres unmarked) [GT-05709]

[6.14, 6.11, 6.13, 6.18]

Batch lookup, pIC50 per entry.
1. O=C1CCC(N2Cc3cc(C=C4CN(Cc5ccccc5-c5ccc(Cl)cc5)C4)ccc3C2=O)C(=O)N1 (centres unmarked) [GT-03881]
2. O=C1CCC(N2Cc3cc(C(=O)N4CCN(Cc5ccccc5-c5ccc(Cl)cc5)CC4)ccc3C2=O)C(=O)N1 (centres unmarked) [GT-05455]
3. O=C1CCC(N2Cc3c(ccc(CN4C5CC4CN(C(=O)c4ccccc4-c4ccc(Cl)cc4)C5)c3F)C2=O)C(=O)N1 (centres unmarked) [GT-05666]
4. CC1(C)CCC(CN2C3CCC2CN(Cc2cc4c(cc2F)C(=O)N(C2CCC(=O)NC2=O)C4)C3)=C(c2ccc(Cl)cc2)C1 (centres unmarked) [GT-05535]

[6.32, 5.97, 6.16, 5.75]

====

Here's what we have: IC50 numbers for human Cereblon WT GST-tagged protein (Homo sapiens (Human)).
One number for each entry, in nM.

Below: 5 compounds and their reported IC50.
CC1(C)CCC(CN2CC3CCC(C2)N3Cc2ccc3c(c2)CN(C2CCC(=O)NC2=O)C3=O)=C(c2ccc(F)cc2)C1 (stereo not shown)	840
CC1(C)CCC(C(=O)N2CC3CC2CN3Cc2ccc3c(c2)CN(C2CCC(=O)NC2=O)C3=O)=C(c2ccc(Cl)cc2)C1 (stereo not shown)	490
CC1(C)CCC(CN2C3CC2CN(C(=O)c2ccc4c(c2)CN(C2CCC(=O)NC2=O)C4=O)C3)=C(c2ccc(F)cc2)C1 (stereo not shown)	300
O=C1CCC(N2Cc3cc(CN4C5CC4CN(C(=O)C4=C(c6ccc(F)cc6)CCCC4)C5)cc(F)c3C2=O)C(=O)N1 (stereo not shown)	660
O=C1CCC(N2Cc3cc(CN4CCN(Cc5ccccc5-c5cnco5)CC4)ccc3C2=O)C(=O)N1 (stereo not shown)	990

Batch lookup, IC50 per entry.
1. CC1(C)CCC(CN2CC3CC(C2)N3Cc2cc3c(cc2F)C(=O)N(C2CCC(=O)NC2=O)C3)=C(c2ccc(Cl)cc2)C1 (stereo not shown)
2. O=C1CCC(N2Cc3cc(C(=O)N4C5CC4CN(Cc4ccccc4-c4ccc(Cl)cc4)C5)ccc3C2=O)C(=O)N1 (stereo not shown)

[400, 590]
